- EXPERIMENTAL SYSTEM: Ba/F3 FLT3 (ITD/D835Y) (Homo sapiens, UniProt P36888, D835Y, cells depend on it, form not given)
- ASSAY PROCEDURE: Ba/F3 cell growth inhibition (CellTiter-Glo, 72 hours)
- Type: cell-based
- CONDITIONS USED: read-out: Ba/F3 GI50s (μM) FLT3 (ITD/D835Y)
- Description: Seeding 3000 cells per well in a 96-well plate. After cell stabilization, treat the cells with compounds diluted in […] at a ⅓ serial dilution and culture for 72 hours. Following treatment with CellTiter-Glo, luminescence is produced only in the presence of ATP, as luciferase degrades luciferin. Luminescence values were measured using Envision (PerkinElmer). Based on the measured luminescence values, the concentration of compounds causing cell death was calculated to determine the GI50 value. […]
Listing: GI50 of selected compounds
OBSERVED PROPERTY: GI50

>>> measurement("O=C1CCCCCCOc2ccc(cc2)-c2ccc3cnc(nn23)Nc2ccc(cc2)N2CCN1CC2")
"1 to 10 µM"
>>> measurement("O=C1CCCCCCOc2ccc(cc2)-c2ccc3cnc(nn23)Nc2cnn(c2)C2CCN(CCCN1)CC2")
"< 1 µM"
>>> measurement("CS(=O)(=O)Nc1cccc(-c2ccc3cnc(Nc4ccc(N5CCN(CCCCCOc6cccc7c6C(=O)N(C6CCC(=O)NC6=O)C7=O)CC5)cc4)nn23)c1 (stereo not drawn)")
"≥ 10 µM"
>>> measurement("Cc1ncsc1-c1ccc(CNC(=O)[C@@H]2C[C@@H](O)CN2C(=O)[C@@H](NC(=O)COCCN2CCN(c3ccc(Nc4ncc5ccc(-c6cccc(NS(C)(=O)=O)c6)n5n4)cc3)CC2)C(C)(C)C)cc1")
"< 1 µM"
>>> measurement("Cc1ncsc1-c1ccc(CNC(=O)[C@@H]2C[C@@H](O)CN2C(=O)[C@@H](NC(=O)CCOCCOCCN2CCN(c3ccc(Nc4ncc5ccc(-c6cccc(NS(C)(=O)=O)c6)n5n4)cc3)CC2)C(C)(C)C)cc1")
"< 1 µM"
>>> measurement("COc1cc2ccc1Nc1ncc3ccc(n3n1)-c1ccc(cc1)OCCOCC(=O)NCCCO2")
"1 to 10 µM"

* * *

Reported IC50 values for a set of molecules
- Tested on: H23
- ASSAY PROCEDURE: Cancer cell growth inhibition (CellTiter-Glo, 72 hours)
- Format: cell-based
- CONDITIONS USED: Homo sapiens, NCI-H23, H23 cells, read-out: GI50s (μM) H23
OBSERVED PROPERTY: IC50

>>> measurement("O=C1CCCCCCOc2ccc(cc2)-c2ccc3cnc(nn23)Nc2ccc(cc2)N2CCN(CCCN1)CC2")
"< 1 µM"
>>> measurement("O=C1COCCOc2ccc(cc2)-c2ccc3cnc(nn23)Nc2ccc(cc2)OCCCN1")
"1 to 10 µM"
>>> measurement("CS(=O)(=O)Nc1cccc(-c2ccc3cnc(Nc4ccc(N5CCN(CCCCCOc6cccc7c6C(=O)N(C6CCC(=O)NC6=O)C7=O)CC5)cc4)nn23)c1 (stereo not drawn)")
"≥ 10 µM"

* * *

The entries below come with measured IC50 values attached.
- System: colo205
- ASSAY PROCEDURE: Cancer cell growth inhibition (CellTiter-Glo, 72 hours)
- Format: cell-based
- CONDITIONS USED: Homo sapiens, COLO 205, colo205 cells, read-out: GI50s (μM) colo205
OBSERVED PROPERTY: IC50

>>> measurement("Cc1ncsc1-c1ccc(CNC(=O)[C@@H]2C[C@@H](O)CN2C(=O)[C@@H](NC(=O)CCOCCOCCN2CCN(c3ccc(Nc4ncc5ccc(-c6cccc(NS(C)(=O)=O)c6)n5n4)cc3)CC2)C(C)(C)C)cc1")
"≥ 10 µM"
>>> measurement("COc1cc2ccc1Nc1ncc3ccc(n3n1)-c1ccc(cc1)OCCOCC(=O)NCCCO2")
"≥ 10 µM"
>>> measurement("COc1cccc(NC(=O)N2CCCn3cc(cn3)Nc3ncc4ccc(n4n3)-c3ccc(cc3)OCC2)c1")
"≥ 10 µM"
>>> measurement("Cc1ncsc1-c1ccc(CNC(=O)[C@@H]2C[C@@H](O)CN2C(=O)[C@@H](NC(=O)COCCN2CCN(c3ccc(Nc4ncc5ccc(-c6cccc(NS(C)(=O)=O)c6)n5n4)cc3)CC2)C(C)(C)C)cc1")
"≥ 10 µM"
>>> measurement("O=C1CCCCCCOc2ccc(cc2F)-c2ccc3cnc(nn23)Nc2ccc(cc2)OCCCN1")
"≥ 10 µM"
>>> measurement("CC(=O)N1CCCn2cc(cn2)Nc2ncc3ccc(n3n2)-c2ccc(cc2)OCC1")
"1 to 10 µM"
>>> measurement("O=C1COCCOc2ccc(cc2)-c2ccc3cnc(nn23)Nc2cnn(c2)CCCN1")
"1 to 10 µM"
>>> measurement("O=C1CCCCCCOc2ccc(cc2)-c2ccc3cnc(nn23)Nc2ccc(cc2)N2CCN(CCCN1)CC2")
"1 to 10 µM"
>>> measurement("CN1CCCn2cc(cn2)Nc2ncc3ccc(n3n2)-c2ccc(cc2)OCC1")
"1 to 10 µM"
>>> measurement("O=C1CCCCCCn2cc(cn2)-c2ccc3cnc(nn23)Nc2ccc(cc2)OCCCN1")
"≥ 10 µM"
>>> measurement("O=C1CCCCOc2ccc(cc2)-c2ccc3cnc(nn23)Nc2cnn(c2)CCCN1")
"1 to 10 µM"
>>> measurement("O=C1CCCCCCOc2ccc(cc2)-c2ccc3cnc(nn23)Nc2cnn(c2)C2CCN(CCCN1)CC2")
"≥ 10 µM"
>>> measurement("c1cc2ccc1Nc1ncc3ccc(n3n1)-c1ccc(cc1)OCCNCCCO2")
"1 to 10 µM"
>>> measurement("CS(=O)(=O)Nc1cccc(-c2ccc3cnc(Nc4ccc(N5CCN(CCCCCCCCCCCOc6cccc7c6C(=O)N(C6CCC(=O)NC6=O)C7=O)CC5)cc4)nn23)c1 (stereo not drawn)")
"≥ 10 µM"
>>> measurement("CS(=O)(=O)N1CCCn2cc(cn2)Nc2ncc3ccc(n3n2)-c2ccc(cc2)OCC1")
"1 to 10 µM"
>>> measurement("O=C1CCCCOc2ccc(cc2)-c2ccc3cnc(nn23)Nc2cnn(c2)C2CCN1CC2")
"≥ 10 µM"
>>> measurement("CS(=O)(=O)Nc1cccc(-c2ccc3cnc(Nc4ccc(N5CCN(CCCCCCCOc6cccc7c6C(=O)N(C6CCC(=O)NC6=O)C7=O)CC5)cc4)nn23)c1 (stereo not drawn)")
"≥ 10 µM"
>>> measurement("O=C1CCCCOc2ccc(cc2)-c2ccc3cnc(nn23)Nc2cnn(c2)C2CCN(CCCN1)CC2")
"< 1 µM"
>>> measurement("CS(=O)(=O)Nc1cccc(-c2ccc3cnc(Nc4ccc(N5CCN(CCCCCOc6cccc7c6C(=O)N(C6CCC(=O)NC6=O)C7=O)CC5)cc4)nn23)c1 (stereo not drawn)")
"≥ 10 µM"
>>> measurement("CS(=O)(=O)Nc1cccc(-c2ccc3cnc(Nc4ccc(N5CCN(CCCOc6cccc7c6C(=O)N(C6CCC(=O)NC6=O)C7=O)CC5)cc4)nn23)c1 (stereo not drawn)")
"≥ 10 µM"
>>> measurement("O=C1CCCCCCOc2ccc(cc2)-c2ccc3cnc(nn23)Nc2ccc(cc2)OCCCN1")
"1 to 10 µM"
